tested on: Plasmodium falciparum; assay: Antimalarial activity against Plasmodium falciparum FCR3/A2; type: functional, organism-based; conditions: FCR-3
property_name: log10 IC50 (log10 of the value in µM)
Scale: log10; quantity: IC50; unit before log: µM

CC(=O)O[C@H]1CCC(C)(C)[C@]2(O)C[C@@H]3OC(=O)[C@@H]4c5ccoc5C[C@@H]([C@@H]34)[C@@]12C [CAESALMIN B]	-0.10
CC(=O)O[C@H]1C[C@@H](OC(C)=O)C(C)(C)[C@]2(O)CC[C@H]3C(=O)c4ccoc4C[C@@H]3[C@@]12C [NORCAESALPININ B]	-0.59
C=C1c2ccoc2C[C@H]2[C@H]1CC[C@@]1(O)C(C)(C)[C@H](OC(C)=O)C[C@H](OC(C)=O)[C@]21C [CAESALPININ C]	-0.12

Item under review: COC(=O)[C@@H]1c2ccoc2C[C@H]2[C@H]1[C@@H](OC(C)=O)C[C@@]1(O)C(C)(C)CC[C@H](OC(C)=O)[C@]21C [ACETOXYBONDUCELLPIN C] . Reported log10 IC50?
-0.22
